# Protocol: clinical;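 note: measured in healthy adult volunteers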
# Conditions: both, human, in vivo
Parameter: half-life

>>> reported_value("O=C(NCC1CCCCN1)c1cc(OCC(F)(F)F)ccc1OCC(F)(F)F (stereo not shown) [flecainide]")
"3.5 to 4.2 min"

----------
# Protocol: clinical
# Conditions: human, in vivo, iv, 2 mg/kg, Tmax (min after EOI)
Parameter: Tmax

>>> reported_value("O=C(NCC1CCCCN1)c1cc(OCC(F)(F)F)ccc1OCC(F)(F)F (stereo not shown) [flecainide]")
"1 to 60 min"

Data origin, for the record: patent US20230092389A1
